# PROTOCOL NOTES: Half life in po dosed rat
# Assay type: ADME, organism-based
# MEASUREMENT PARAMETERS: in vivo
VALUE TYPE: half-life (h)
Enter your answer as a number in h; do not include the unit.

query: Return the recorded half-life value; entry: `C=C(c1ccc(C(=O)O)cc1)c1cc2c(cc1C)C(C)(C)CCC2(C)C`
result: 1.2

---

# PROTOCOL NOTES: Cmax in mouse at 10 mg/kg, po
# Assay type: ADME, organism-based
# Design: route oral, dose 10 mg/kg
# MEASUREMENT PARAMETERS: in vivo
VALUE TYPE: Cmax

O=C(O)CCc1nc(-c2ccccc2)c(-c2cc(C(F)(F)F)cc(C(F)(F)F)c2)o1; 33000 ng/mL

query: // fetch Cmax given entry `O=C(O)CCCc1cc(-c2cc(Cl)cc(Cl)c2)n(-c2ccccc2)n1`
result: 35000 ng/mL

---

Entries and their measured EC50 follow.
# ASSAYED TARGET: Retinoic acid receptor RXR-beta (Homo sapiens, UniProt P28702)
# Sequence (P28702 whole entry): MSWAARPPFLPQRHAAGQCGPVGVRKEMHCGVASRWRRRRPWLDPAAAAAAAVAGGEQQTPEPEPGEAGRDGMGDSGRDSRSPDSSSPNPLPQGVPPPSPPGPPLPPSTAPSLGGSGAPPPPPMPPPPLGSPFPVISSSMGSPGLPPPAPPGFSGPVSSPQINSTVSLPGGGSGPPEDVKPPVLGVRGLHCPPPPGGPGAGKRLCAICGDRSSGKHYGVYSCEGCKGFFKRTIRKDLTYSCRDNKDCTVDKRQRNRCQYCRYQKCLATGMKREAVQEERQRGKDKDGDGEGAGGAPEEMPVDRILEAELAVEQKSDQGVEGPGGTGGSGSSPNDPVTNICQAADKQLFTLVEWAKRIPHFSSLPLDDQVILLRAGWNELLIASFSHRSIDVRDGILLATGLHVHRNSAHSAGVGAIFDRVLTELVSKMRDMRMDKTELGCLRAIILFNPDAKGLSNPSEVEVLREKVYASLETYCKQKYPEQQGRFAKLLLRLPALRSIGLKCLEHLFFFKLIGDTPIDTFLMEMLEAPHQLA
# PROTOCOL NOTES: Agonist activity at human RXRbeta transfected in human HEK293T cells co-expressing pFR/pRL-Luc incubated for 14 to 16 hrs by hybrid reporter gene assay
Express the result in nM but write the number alone.

Solved entries (count: 5):
O=C(O)CCc1cc(-c2cc(Cl)cc(Cl)c2)n(-c2ccc(F)cc2)n1; 470
Cc1ccc(-c2nc(CCC(=O)O)oc2-c2ccccc2)cc1; 14400
O=C(O)CCc1nc(-c2ccccc2)c(-c2ccccc2Cl)o1; 19100
COc1cccc(-c2oc(CCC(=O)O)nc2-c2ccccc2)c1; 1800
O=C(O)CCc1nc(-c2ccccc2)c(-c2cc(F)cc(F)c2)o1; 50

Then there is this compound:
query: Look up EC50 of `O=C(O)CCc1nc(-c2cc(Cl)cc(Cl)c2)c(-c2ccccc2)o1` and report it.
result: 3400

---

Here the recorded pEC50 is given for each entry.
# ASSAYED TARGET: Retinoic acid receptor RXR-beta (Homo sapiens)
# PROTOCOL NOTES: Agonist activity at human RXRbeta transfected in human HEK293T cells co-expressing pFR/pRL-Luc incubated for 14 to 16 hrs by hybrid reporter gene assay
Value format note: pEC50 is -log10 of concentration (mol/L); just state the number.

Below, 5 compounds whose answers are already recorded.
O=C(O)CCc1nc(-c2ccccc2)c(-c2ccc(Cl)c(Cl)c2)o1; 6.06
O=C(O)CCCc1nc(-c2ccccc2)c(-c2cc(Cl)cc(Cl)c2)o1; 6.30
O=C(O)CCc1nc(-c2ccc(Cl)c(Cl)c2)c(-c2ccccc2)o1; 5.89
Cc1cccc(-c2nc(CCC(=O)O)oc2-c2ccccc2)c1; 5.32
N#Cc1ccc(-n2nc(CCC(=O)O)cc2-c2cc(Cl)cc(Cl)c2)cc1; 5.70

query: Supply recorded pEC50 for `O=C(O)CCc1cc(-c2cc(C(F)(F)F)cc(C(F)(F)F)c2)n(-c2ccc(Cl)cc2)n1` here.
result: 6.57

query: Please supply the value of reported pEC50 for the item `O=C(O)CCc1nc(-c2ccccc2)c(-c2cc(Cl)ccc2Cl)o1`
result: 5.85

query: For the compound `Cc1cccc(-c2oc(CCC(=O)O)nc2-c2ccccc2)c1` , give its measured pEC50 value.
result: 6.05

---

# ASSAYED TARGET: Retinoic acid receptor RXR-gamma (Homo sapiens)
# PROTOCOL NOTES: Agonist activity at human RXRgamma transfected in human HEK293T cells co-expressing pFR/pRL-Luc incubated for 14 to 16 hrs by hybrid reporter gene assay
# Format: cell-based
VALUE TYPE: pEC50
Bear in mind: pEC50 is minus log10 of a mol/L concentration; give just that figure.

query: # lookup: Retinoic acid receptor RXR-gamma (Homo sapiens) pEC50, key = `O=C(O)CCc1nc(-c2cc(Cl)cc(Cl)c2)c(-c2ccccc2)o1`
result: 5.55

query: Give measured pEC50 for `O=C(O)CCc1nc(-c2ccccc2)c(-c2ccc(Cl)c(Cl)c2)o1` (Retinoic acid receptor RXR-gamma (Homo sapiens)).
result: 5.82

query: Fill in pEC50 for `O=C(O)CCc1nc(-c2ccccc2)c(-c2cc(C(F)(F)F)cc(C(F)(F)F)c2)o1` tested with Retinoic acid receptor RXR-gamma (Homo sapiens).
result: 7.30

query: Provide measured pEC50 on Retinoic acid receptor RXR-gamma (Homo sapiens) for `N#Cc1ccc(-n2nc(CCC(=O)O)cc2-c2cc(Cl)cc(Cl)c2)cc1` please.
result: 5.22

---

# ASSAYED TARGET: Retinoic acid receptor RXR-alpha (Homo sapiens, UniProt P19793)
# Sequence (P19793 whole entry): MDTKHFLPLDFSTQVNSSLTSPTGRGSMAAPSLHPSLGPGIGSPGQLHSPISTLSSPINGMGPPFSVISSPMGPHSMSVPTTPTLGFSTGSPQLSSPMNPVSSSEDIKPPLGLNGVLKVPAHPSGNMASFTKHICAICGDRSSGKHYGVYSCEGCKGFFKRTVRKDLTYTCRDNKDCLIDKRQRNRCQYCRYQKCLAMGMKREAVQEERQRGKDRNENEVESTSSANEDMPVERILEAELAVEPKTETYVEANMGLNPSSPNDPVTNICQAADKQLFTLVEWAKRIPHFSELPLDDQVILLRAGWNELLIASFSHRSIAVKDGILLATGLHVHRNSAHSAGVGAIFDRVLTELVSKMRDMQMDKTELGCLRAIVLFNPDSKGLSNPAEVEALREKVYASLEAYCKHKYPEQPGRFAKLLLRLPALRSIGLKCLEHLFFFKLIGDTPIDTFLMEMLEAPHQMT
# PROTOCOL NOTES: Agonist activity at human RXRalpha transfected in human HEK293T cells co-expressing pFR/pRL-Luc incubated for 14 to 16 hrs by hybrid reporter gene assay
With a cut-off of 1000 nM, any EC50 strictly below it is called label 1; any EC50 meeting it or above is called label 0.

query: Is EC50 strictly under 1000 nM for the entry `O=C(O)CCCc1nc(-c2ccccc2)c(-c2cc(Cl)cc(Cl)c2)o1` ?
result: label 1

query: State whether 1000 nM exceeds EC50 recorded for `O=C(O)CCc1nc(-c2cccc(Cl)c2)c(-c2ccccc2)o1` .
result: label 0

query: Below 1000 nM on EC50? Entry `O=C(O)CCc1nc(-c2ccc(Cl)cc2)c(-c2ccccc2)o1`
result: label 0

query: Decide: EC50 of `Cc1cccc(-c2oc(CCC(=O)O)nc2-c2ccccc2)c1` strictly below 1000 nM?
result: label 1

query: is_below(EC50, 1000 nM) for `N#Cc1ccc(-n2nc(CCC(=O)O)cc2-c2cc(Cl)cc(Cl)c2)cc1` ?
result: label 0

query: Please indicate whether the reported EC50 of `Cc1ccccc1-c1oc(CCC(=O)O)nc1-c1ccccc1` is strictly below 1000 nM.
result: label 0

query: Input `COc1cccc(-c2oc(CCC(=O)O)nc2-c2ccccc2)c1` ; condition: EC50 strictly below 1000 nM. Does it hold?
result: label 0

query: Please determine if `O=C(O)CCCc1cc(-c2cc(Cl)cc(Cl)c2)n(-c2ccc(Cl)cc2)n1` is below 1000 nM in terms of EC50.
result: label 0

query: I wonder whether `O=C(O)CCCc1nc(-c2ccccc2)c(-c2ccccc2)o1` has EC50 below 1000 nM. Can you tell?
result: label 0

query: Strictly below 1000 nM: is that where EC50 of `Cc1ccc(-n2nc(CCC(=O)O)cc2-c2cc(Cl)cc(Cl)c2)cc1` sits?
result: label 0

query: Find out if reported EC50 for `O=C(O)CCc1nc(-c2ccccc2Cl)c(-c2ccccc2)o1` is less than 1000 nM
result: label 0

query: Quick check: EC50 of `Cc1ccccc1-c1nc(CCC(=O)O)oc1-c1ccccc1` under 1000 nM?
result: label 0

query: Does the reported EC50 of the following compound sit strictly below 1000 nM? `O=C(O)CCc1nc(-c2ccc(Cl)cc2)c(-c2cc(Cl)cc(Cl)c2)o1`
result: label 1

query: State whether 1000 nM exceeds EC50 recorded for `O=C(O)CCc1nc(-c2ccccc2)c(-c2cccc(Cl)c2Cl)o1` .
result: label 0

---

# ASSAYED TARGET: Retinoic acid receptor RXR-gamma (Homo sapiens)
# Sequence (P48443 whole entry): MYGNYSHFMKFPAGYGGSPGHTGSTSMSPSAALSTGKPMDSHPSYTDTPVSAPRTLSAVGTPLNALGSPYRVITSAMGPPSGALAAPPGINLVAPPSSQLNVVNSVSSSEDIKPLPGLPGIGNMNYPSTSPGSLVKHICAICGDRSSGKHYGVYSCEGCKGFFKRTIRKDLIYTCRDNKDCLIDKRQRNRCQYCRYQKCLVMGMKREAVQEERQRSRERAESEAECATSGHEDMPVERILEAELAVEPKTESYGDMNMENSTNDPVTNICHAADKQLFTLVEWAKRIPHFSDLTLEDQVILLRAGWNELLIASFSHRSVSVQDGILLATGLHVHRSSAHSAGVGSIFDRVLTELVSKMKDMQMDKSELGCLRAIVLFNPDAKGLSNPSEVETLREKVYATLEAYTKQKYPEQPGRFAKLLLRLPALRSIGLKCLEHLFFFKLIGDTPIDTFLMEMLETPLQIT
# PROTOCOL NOTES: Agonist activity at human RXRgamma transfected in human HEK293T cells co-expressing pFR/pRL-Luc incubated for 14 to 16 hrs by hybrid reporter gene assay
VALUE TYPE: EC50 (µM)
Response body: numeric value in µM, unit text excluded.

Cc1ccccc1-c1nc(CCC(=O)O)oc1-c1ccccc1; 25
O=C(O)CCc1nc(-c2ccc(Cl)cc2)c(-c2cc(Cl)cc(Cl)c2)o1; 0.4
O=C(O)CCCc1cc(-c2cc(Cl)cc(Cl)c2)n(-c2ccccc2)n1; 1.6
O=C(O)CCc1nc(-c2ccccc2)c(-c2ccc(Cl)cc2)o1; 19
O=C(O)CCCc1nc(-c2ccccc2)c(-c2cc(Cl)cc(Cl)c2)o1; 1.3
Cc1cccc(-c2oc(CCC(=O)O)nc2-c2ccccc2)c1; 3.5

query: Give recorded EC50. `O=C(O)CCc1cc(-c2cc(Cl)cc(Cl)c2)n(-c2cccc(Cl)c2)n1`
result: 3.5

query: Quick one: give measured EC50 for `O=C(O)CCc1cc(-c2cc(Cl)cc(Cl)c2)n(-c2ccc(Cl)cc2)n1`
result: 1.5

query: Specify EC50 for `O=C(O)CCc1nc(-c2ccccc2)c(-c2cc(Cl)cc(Cl)c2)o1` and stop.
result: 0.2

query: Kindly indicate its recorded EC50. Item: `O=C(O)CCc1cc(-c2cc(C(F)(F)F)cc(C(F)(F)F)c2)n(-c2ccc(Cl)cc2)n1`
result: 0.46

query: Given the molecule `O=C(O)CCc1nc(-c2ccccc2)c(-c2ccccc2)o1` , write its reported EC50.
result: 40.1
